Origin of the recorded values: patent US4372948A

Test system: carrageenin edema
Assay: Anti-Carrageenin edema activity
Type: in vivo, rat
Conditions: Rattus norvegicus, po, 1000 mg/kg once, read-out: I.R. against carrageenin edema
Label rule, in plain words: inhibition in vivo at 1000 mg/kg of 20% and up is Condition met, under 20% is Condition not met.

O=C(OCC1CCCCC1)c1ccccc1NC1O[C@H](CO)[C@@H](O[C@@H]2O[C@H](CO)[C@H](O)[C@H](O)[C@H]2O)[C@H](O)[C@H]1O (stereo partly drawn) [Compound 21] = Condition not met

Prompt: Check this molecule for inhibition in vivo at 1000 mg/kg at or above 20%: C[C@@H]1OC(Nc2cccc(C(=O)OCC3CCCCC3)c2)[C@@H](O)[C@H](O)[C@@H]1O (stereo partly drawn) [Compound 22]
Completion: Condition met

Prompt: Query NC(=O)c1ccc(NC2O[C@H](CO)[C@@H](O)[C@H](O)[C@@H]2O)cc1 (stereo partly drawn) [Compound 4, p-aminobenzoic acid amide-N-D-mannoside] next
Completion: Condition not met

Prompt: Query C[C@@H]1OC(Nc2ccc(C(N)=O)cc2)[C@H](O)[C@H](O)[C@H]1O (stereo partly drawn) [Compound 5, p-aminobenzoic acid amide-N-L-rhamnoside] next
Completion: Condition not met

Prompt: Query O=C(OC1CCCCC1)c1cccc(NC2O[C@H](CO)[C@@H](O)[C@H](O)[C@@H]2O)c1 (stereo partly drawn) [Compound 17, cyclohexyl m-aminobenzoate-N-D-mannoside] next
Completion: Condition not met

Prompt: Query O=C(OC1CCCCC1)c1ccc(NC2O[C@H](CO)[C@@H](O[C@H]3O[C@H](CO)[C@@H](O[C@H]4O[C@H](CO)[C@@H](O)[C@H](O)[C@H]4O)[C@H](O)[C@H]3O)[C@H](O)[C@H]2O)cc1 (stereo partly drawn) [Compound 20] next
Completion: Condition not met

Prompt: Query O=C(OC1CCCCC1)c1ccc(NC2O[C@H](CO)[C@@H](O[C@@H]3O[C@H](CO)[C@@H](O)[C@H](O)[C@H]3O)[C@H](O)[C@H]2O)cc1 (stereo partly drawn) [Compound 19] next
Completion: Condition not met

Prompt: Query O=C(OCc1ccccc1)c1ccc(NC2C[C@H](O)[C@H](O)CO2)cc1 (stereo partly drawn) [Compound 13, benzyl p-aminobenzoate-N-D-deoxyriboside] next
Completion: Condition not met

Prompt: Query C[C@@H]1OC(Nc2ccc(C(=O)OCC3CCCCC3)cc2)[C@H](O)[C@H](O)[C@H]1O (stereo partly drawn) [Compound 25] next
Completion: Condition not met

Prompt: Query C[C@@H]1OC(Nc2cccc(C(=O)OCc3ccccc3)c2)[C@@H](O)[C@H](O)[C@@H]1O (stereo partly drawn) [Compound 11, benzyl m-aminobenzoate-N-L-fucoside] next
Completion: Condition met

###

Test: in vivo
Settings: mouse, in vivo, po, mice, 7 days observation, read-out: LD50, acute oral toxicity
Give LD50 at 168 h for every item shown.
Numbers only, in mg/kg.

Below are 7 compounds. Give each one its LD50 at 168 h.
1. O=C(OCc1ccccc1)c1ccc(NC2(CO)OC[C@@H](O)[C@@H](O)[C@@H]2O)cc1 (stereo partly drawn) [Compound 15, benzyl p-aminobenzoate-N-D-fructoside]
2. C[C@@H]1OC(Nc2ccc(CC(=O)O)cc2)[C@H](O)[C@H](O)[C@H]1O (stereo partly drawn) [Compound 27, p-aminophenylacetic acid-N-L-rhamnoside]
3. NC(=O)c1ccccc1NC1(CO)OC[C@@H](O)[C@@H](O)[C@@H]1O (stereo partly drawn) [Compound 1, o-Aminobenzoic acid amide-N-D-fructoside]
4. O=C(Oc1ccccc1)c1ccc(NC2O[C@H](CO)[C@@H](O[C@H]3O[C@H](CO)[C@@H](O[C@H]4O[C@H](CO)[C@@H](O)[C@H](O)[C@H]4O)[C@H](O)[C@H]3O)[C@H](O)[C@H]2O)cc1 (some centres unmarked) [Compound 10, phenyl p-aminobenzoate-N-maltotrioside]
5. O=C(OC1CCCCC1)c1ccc(NC2O[C@H](CO)[C@@H](O[C@@H]3O[C@H](CO)[C@@H](O)[C@H](O)[C@H]3O)[C@H](O)[C@H]2O)cc1 (some centres unmarked)
6. O=C(OCc1ccccc1)c1cccc(NC2O[C@H](CO)[C@@H](O[C@@H]3O[C@H](CO)[C@H](O)[C@H](O)[C@H]3O)[C@H](O)[C@H]2O)c1 (some centres unmarked) [Compound 12, benzyl m-aminobenzoate-N-lactoside]
7. C[C@@H]1OC(Nc2cccc(C(=O)OCC3CCCCC3)c2)[C@@H](O)[C@H](O)[C@@H]1O (some centres unmarked)

Completion:
1: 11000; 2: 13800; 3: 11800; 4: 12400; 5: 14600; 6: 11500; 7: 10100

Below are 4 compounds. Give each one its LD50 at 168 h.
1. O=C(Oc1ccccc1)c1ccc(NC2OC[C@@H](O)[C@H](O)[C@H]2O)cc1 (stereo partly drawn) [Compound 8, phenyl p-aminobenzoate-N-D-xyloside]
2. O=C(OC1CCCCC1)c1ccc(NC2O[C@H](CO)[C@@H](O[C@H]3O[C@H](CO)[C@@H](O[C@H]4O[C@H](CO)[C@@H](O)[C@H](O)[C@H]4O)[C@H](O)[C@H]3O)[C@H](O)[C@H]2O)cc1 (some centres unmarked)
3. NC(=O)c1ccc(NC2O[C@H](CO)[C@@H](O)[C@H](O)[C@@H]2O)cc1 (stereo partly drawn) [Compound 4, p-aminobenzoic acid amide-N-D-mannoside]
4. O=C(OCc1ccccc1)c1ccc(NC2C[C@H](O)[C@H](O)CO2)cc1 (stereo partly drawn) [Compound 13, benzyl p-aminobenzoate-N-D-deoxyriboside]

Completion:
1. 13500
2. 12500
3. 13600
4. 9200
